experiment: Selectivity index, ratio of IC50 for cytotoxicity against human NHDF cells to IC50 for cytotoxicity against human MCF7 cells
Type: toxicity, cell-based
assaySetup: NHDF cells and MCF7 cells, read-out: Ratio IC50
recordedEndpoint: selectivity ratio
Answer using only a numeral; do not append any unit.

So what does the record say about selectivity ratio for "Oc1ccc(Cl)cc1-c1cc(/C=C/c2ccc(Cl)cc2)nn1-c1ccccc1" ?
2

So what does the record say about selectivity ratio for "Oc1ccccc1-c1cc(/C=C/c2cccc(Cl)c2)nn1-c1ccccc1" ?
1.6

So what does the record say about selectivity ratio for "Oc1ccccc1-c1cc(/C=C/c2ccc(Cl)cc2)nn1-c1ccccc1" ?
1.5

So what does the record say about selectivity ratio for "COc1cccc(/C=C/c2cc(-c3cc(Cl)ccc3O)n(-c3ccccc3)n2)c1" ?
2.3

So what does the record say about selectivity ratio for "COc1cc(/C=C/c2cc(-c3cc(Cl)ccc3O)n(-c3ccccc3)n2)cc(OC)c1OC" ?
3.9

So what does the record say about selectivity ratio for "Cc1ccc(/C=C/c2cc(-c3ccccc3O)n(-c3ccccc3)n2)s1" ?
1.1

So what does the record say about selectivity ratio for "COc1ccc(/C=C/c2cc(-c3cc(Cl)ccc3O)n(-c3ccccc3)n2)cc1OC" ?
2.5

So what does the record say about selectivity ratio for "O=[N+]([O-])c1cccc(/C=C/c2cc(-c3cc(Cl)ccc3O)n(-c3ccccc3)n2)c1" ?
2.6
